All values here come from patent US20240343704A1.

Can you tell me IC50 for the items I'm about to list?
- experimental-target: Recombinant (1-346) HPK1 (h) (Homo sapiens, UniProt Q92918)
- Construct: Recombinant (1-346) HPK1 (h) is incubated with 8 mM MOPS pH 7.0
- Sequence (Q92918 1-346): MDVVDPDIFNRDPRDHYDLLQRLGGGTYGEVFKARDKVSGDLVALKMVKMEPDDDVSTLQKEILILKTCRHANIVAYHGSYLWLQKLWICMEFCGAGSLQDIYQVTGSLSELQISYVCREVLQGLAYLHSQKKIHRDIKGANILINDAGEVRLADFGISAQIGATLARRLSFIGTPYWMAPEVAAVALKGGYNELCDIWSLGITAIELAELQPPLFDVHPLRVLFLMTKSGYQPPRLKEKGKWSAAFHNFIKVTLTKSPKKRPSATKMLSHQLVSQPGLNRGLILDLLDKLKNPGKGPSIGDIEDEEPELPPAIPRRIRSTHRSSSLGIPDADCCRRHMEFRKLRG
- test-protocol: HPK1 Human STE Kinase Enzymatic Radiometric Assay
- Type: biochemical
- condition-description: read-out: HPK1 IC50 nM Range*

Challenge: Report IC50 for Nc1nc(F)c(-c2ccc(N3CCNCC3)cc2)cc1-c1cc2c(cc1F)C(=O)NCC2 [I-172, 2,2,2-trifluoroacetate] tested on Recombinant (1-346) HPK1 (h) (Homo sapiens, UniProt Q92918).
Response given: 0.1 to 10 nM

Challenge: And for COCCN1CCC(O)(c2ccc(-c3cc(-c4ccc5c(c4)CCNC5=O)c(N)nc3F)cc2)CC1 [I-167] ?
Response given: 0.1 to 10 nM

Challenge: Now this one: CN(C)Cc1nc(-c2cc(-c3ccc4c(c3)CCNC4=O)c(N)nc2F)ccc1N1CCOCC1 [I-551]
Response given: 0.1 to 10 nM

Challenge: Now this one: Nc1nc(F)c(-c2ccc3c(c2)CNCC3)cc1-c1ccc2c(c1)CCNC2=O [I-334, 2,2,2-trifluoroacetate]
Response given: 11 to 100 nM

Challenge: Here is the next molecule: CC(C)N1C[C@@H]2C[C@]2(c2ccc(-c3cc(-c4ccc5c(c4)CCNC5=O)c(N)nc3F)cc2)C1 [I-111, 2,2,2-trifluoroacetate]
Response given: 0.1 to 10 nM

Challenge: Param item: CC(C)[C@H]1CN(c2ccc(-c3cc(-c4ccc5c(c4)CCNC5=O)c(N)nc3F)c(F)c2)CCN1C [I-51]
Response given: 0.1 to 10 nM

Challenge: Subsequent entry: Nc1nc(F)c(-c2ccc(C3CCN(CC4CC4)CC3)cc2)cc1-c1cc2c(cc1F)C(=O)NCC2 [I-242]
Response given: 0.1 to 10 nM

Challenge: Record: Nc1ncc(-c2ccc(N3CCOCC3)cc2)c(F)c1-c1ccc2c(c1)CCNC2=O [I-2]
Response given: 11 to 100 nM

Challenge: Quick one: Nc1nc(F)c(-c2ccc(N3CCOCC3)c(CN3CCCC3)c2)cc1-c1ccc2c(c1)CCNC2=O [I-491]
Response given: 11 to 100 nM

Challenge: Another molecule to look at: CN1CCN(c2ccc(-c3cc(-c4ccc5c(c4)CNC5=O)c(N)nc3F)cc2)CC1 [I-32]
Response given: 11 to 100 nM

Challenge: Lookup C[C@@H]1CN(c2ccc(-c3cc(-c4ccc5c(c4)CCNC5=O)c(N)nc3F)cc2)C[C@H](C)N1 [I-319]
Response given: 0.1 to 10 nM

Challenge: // next record N#Cc1cc(-c2cc(-c3ccc4c(c3)CCNC4=O)c(N)nc2F)ccc1OC1CCN(CC(F)(F)F)CC1 [I-198]
Response given: 11 to 100 nM

Challenge: Here is the next molecule: CC(C)N1CCC(Oc2ccc(-c3cc(-c4ccc5c(c4)CCNC5=O)c(N)nc3F)cc2)CC1 [I-267]
Response given: 0.1 to 10 nM

Challenge: CN1CCN(c2ccc(-c3cc(-c4ccc5c(c4)CCNC5=O)c(N)nc3F)cc2)C=N1 [I-31] , same question.
Response given: 0.1 to 10 nM

Challenge: Same question for COCCN(C)[C@@H]1CCN(c2ccc(-c3cc(-c4ccc5c(c4)CCNC5=O)c(N)nc3F)cc2)C1 [I-160] please.
Response given: 0.1 to 10 nM

Challenge: Same again, this time with CC(C)N1CCC(Oc2ccc(-c3cc(-c4ccc5c(c4)CCNC5=O)c(N)nc3F)cc2C(F)(F)F)CC1 [I-261]
Response given: 11 to 100 nM
